Can you tell me protein stability index for the items I'm about to list?
B1: ANKRD9 (parent)
chain: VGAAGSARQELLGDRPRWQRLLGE

Variants of: B1
Assay: protein stability index of a GFP-peptide fusion (GPS, HEK-293T) (PSI 1-6); higher = more stable;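 further: lentivirally expressed fusions sorted by FACS into six bins by GFP to DsRed ratio, PSI derived from sequencing read proportions per bin multiplied by bin number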
Conditions: c terminus: a fixed tail appended

Prompt line: Output measured protein stability index for this item: "G13L"
Response line: 2.66

Prompt line: Respond only with protein stability index recorded for "G13M"
Response line: 3.02

Prompt line: Name the recorded protein stability index of the variant listed here: "E24L"
Response line: 2.38

Prompt line: Hello, please tell me recorded protein stability index for this one: "E10I"
Response line: 2.4

Prompt line: Specify measured protein stability index for "G13C" .
Response line: 2.77

Prompt line: Supply measured protein stability index of "A7K" in your reply.
Response line: 2.94

Prompt line: Return reported protein stability index. Input variant: "L22F"
Response line: 2.93

Prompt line: Return protein stability index for the following variant: "V1P"
Response line: 3.62

Prompt line: Quote protein stability index reported for "R8E" please.
Response line: 4.01

Prompt line: Quick one: give measured protein stability index for "G5P"
Response line: 3.53

Prompt line: Give recorded protein stability index. "W18P"
Response line: 4.98

Prompt line: // Input: "P16I" . Output its protein stability index only.
Response line: 2.92

Prompt line: Provide protein stability index value for the following variant: "Q9S"
Response line: 3.46

Prompt line: Read off the recorded protein stability index for "Q9G"
Response line: 3.41

Prompt line: Identify measured protein stability index associated with "P16E"
Response line: 4.72

Prompt line: Note down protein stability index recorded for "S6C"
Response line: 1.21

Prompt line: Fill in protein stability index for record "L21D"
Response line: 4.72

Prompt line: Specify measured protein stability index for "L21F" .
Response line: 2.68

Prompt line: Answer with reported protein stability index of "L12T"
Response line: 3

Prompt line: Give the value of protein stability index reported for the following: "A4R"
Response line: 3.02

Prompt line: Item "L11P" : provide protein stability index
Response line: 3.86

Prompt line: Please report protein stability index for the following variant: "R17L"
Response line: 2.73

Prompt line: Tell me its protein stability index given "A4T" as the entry.
Response line: 4.35

Prompt line: Provide protein stability index value for the following variant: "A3S"
Response line: 2.78

Prompt line: Specify measured protein stability index for "R20W" .
Response line: 3.32

Prompt line: Respond only with protein stability index recorded for "R17K"
Response line: 3.53

Prompt line: Indicate its recorded protein stability index; the variant in question is "Q19L"
Response line: 2.56

Prompt line: Answer with the recorded protein stability index for the variant listed here: "W18R"
Response line: 4.93

Prompt line: Using the record for "G2Q" , state its measured protein stability index.
Response line: 4.06

Prompt line: Quick one: give measured protein stability index for "G2I"
Response line: 2.67

Prompt line: Could you please provide reported protein stability index for "D14N" ? Thanks!
Response line: 2.6

Prompt line: State its protein stability index for this variant: "S6M"
Response line: 3.65

Prompt line: Give reported protein stability index value for "Q9H"
Response line: 3.38

Prompt line: For "L12E" , write its protein stability index.
Response line: 3.7

Prompt line: Entry "G2R" needs its protein stability index filled in; supply it.
Response line: 4.84

Prompt line: Answer with reported protein stability index of "P16A"
Response line: 3.68

Prompt line: Could you please provide reported protein stability index for "R20E" ? Thanks!
Response line: 2.18

Prompt line: Give protein stability index for the following variant: "W18K"
Response line: 4.64

Prompt line: Consider the variant "G2T" and give its recorded protein stability index.
Response line: 3.06

Prompt line: Provide protein stability index value for the following variant: "L22I"
Response line: 3.18

Prompt line: Identify measured protein stability index associated with "L12F"
Response line: 2.57

Prompt line: Identify the reported protein stability index for the following entry. "L21A"
Response line: 3.28

Prompt line: Determine from records and report protein stability index for "R17H"
Response line: 4.01

Prompt line: Please report protein stability index for the following variant: "G5T"
Response line: 2.3

Prompt line: Hello, please tell me recorded protein stability index for this one: "Q19W"
Response line: 2.81

Prompt line: Give a short answer stating reported protein stability index for "G23M" .
Response line: 3.23

Just for reference, the supplement of paper PMC10567573 is where these values come from.
